System: Rattus norvegicus
protocol-notes: Compound was evaluated in vivo for the effective dose that cause a 50% reduction in frequency of spontaneous bladder contraction in the rat hypertrophied model after oral administration
Type: functional
metric: ED50

>>> readout_value("CCCC(=O)N(Cc1ccc(C#N)cc1)c1c(NC(C)C(C)(C)C)c(=O)c1=O (stereo not drawn)")
"8 mg/kg"
>>> readout_value("CC(C)(C)/N=c1\\c(O)c(O)\\c1=N/Cc1ccc(C#N)cc1Cl")
"3 mg/kg"
>>> readout_value("CCC(C)(C)Nc1c(NCc2c(C)cc(Cl)cc2Cl)c(=O)c1=O")
"0.6 mg/kg"
>>> readout_value("CCc1cc(C#N)ccc1Nc1c(N[C@H](C)C(C)(C)C)c(=O)c1=O")
"0.13 mg/kg"
>>> readout_value("C[C@](O)(C(=O)Nc1ccc(C(=O)c2ccccc2)cc1)C(F)(F)F")
"2.4 mg/kg"
>>> readout_value("CC1(C)Oc2ccc(OC(F)(F)F)cc2[C@@H](N2Cc3ccccc3C2=O)[C@@H]1O")
"0.3 mg/kg"
>>> readout_value("CCCC(=O)N(Cc1c(C)cc(Cl)cc1Cl)c1c(NC(C)(C)CC)c(=O)c1=O")
"3.9 mg/kg"
>>> readout_value("CC(C)(C)/N=c1\\c(O)c(O)\\c1=N/Cc1ccc(C#N)cc1")
"3 mg/kg"
